Data provenance is PubChem BioAssay.

Assay: binders of probe aFGF10 on microarray, primary screen, stem cell growth factor project, biochemical, small-molecule microarray, fluorescence 635/667 (AID 1071);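 further: score merges 667 nm spot intensity and signal to noise from triplicate slides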
Details: higher = more signal
# composite z-score annotations

[
  {
    "Compound": "O=C(O)[C@H]1C[C@H]2C(=O)N[C@@H](Cc3ccccc3)C(=O)N2[C@H]1c1ccc(O)cc1",
    "composite z-score": -0.769
  },
  {
    "Compound": "CC(C)C(CO)N1C(=O)[C@@H]2[C@H]3C(=O)OCC=C[C@H]3OC23C=CCN(Cc2ccccc2)C(=O)[C@@H]13 (some centres undefined)",
    "composite z-score": -0.307
  },
  {
    "Compound": "C=CCN1C(=O)[C@@]2(O[C@@H](CCn3cc(CCO)nn3)[C@H]([Si](C)(C)c3ccc(OC)cc3)[C@H]2C)c2cc(N3C(=O)c4cccc5cccc3c45)ccc21",
    "composite z-score": 0.569
  },
  {
    "Compound": "O=C(O)[C@H]1C[C@H]2C(=O)NCC(=O)N2[C@H]1c1cccc(OCCO)c1",
    "composite z-score": -0.213
  }
]
